Where do these numbers come from? They come from patent US20100222269A1.

Parameter: Potency luciferase assay. Scope: all listed entries.
target.system: Amylin 3(a) receptor (human calcitonin receptor (CTa) with RAMP-3) on BHK570 cells (human, UniProt P30988 25-474)
Sequence (P30988 25-474): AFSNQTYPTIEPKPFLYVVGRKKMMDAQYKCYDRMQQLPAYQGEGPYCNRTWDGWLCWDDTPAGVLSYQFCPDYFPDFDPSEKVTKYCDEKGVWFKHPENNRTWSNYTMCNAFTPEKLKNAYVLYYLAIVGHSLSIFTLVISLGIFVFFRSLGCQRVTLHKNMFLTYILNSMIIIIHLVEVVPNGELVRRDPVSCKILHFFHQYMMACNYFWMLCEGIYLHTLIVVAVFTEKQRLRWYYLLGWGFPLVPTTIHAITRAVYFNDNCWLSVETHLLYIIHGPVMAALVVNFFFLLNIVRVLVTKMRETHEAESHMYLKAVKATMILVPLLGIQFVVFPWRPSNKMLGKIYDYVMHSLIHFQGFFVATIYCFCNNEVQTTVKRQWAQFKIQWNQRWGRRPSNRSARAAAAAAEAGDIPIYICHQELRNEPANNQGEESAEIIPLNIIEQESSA
assay.name: cell-based or functional assay
Starred links: 1 amine or outer side, 2 acyl side, 3 side chain; linkers in the order of their positions; H or OH if unused. Positions of bridges follow the written chain, without caps; N, C: chain ends. Groups on a side chain read outwards from the residue. No end group written: not given here. *: point of attachment. C20 diacid = O=C(O)CCCCCCCCCCCCCCCCCCC(=O)*; γGlu = O=C(O)[C@H](CCC(=O)[*:2])N[*:1]; AEEA = NCCOCCOCC(=O)O
Give just the numeric value; pM need not be written.

(Q) Identify the reported Potency luciferase assay for the following entry. KCNTATCATQRLANFLVHSSNNFGK([AEEA-AEEA-C20 diacid])ILPPTNVGSNTY-NH2 (disulfide 2-7 (inferred))
(A) 60

(Q) Identify the reported Potency luciferase assay for the following entry. {C20 diacid-γGlu}-RKCNTATCATQRLANFLVHSSNNFGPILPPTNVGSNTY-NH2 (disulfide 3-8 (inferred)) [N-alpha-[(S)-4-carboxy-4-(19-carboxynonadecanoylamino)butyryl]-Arg-pramlintide (1-37)]
(A) 200

(Q) Identify the reported Potency luciferase assay for the following entry. KCK([Glu-Glu-Glu-Glu-C20 diacid])TATCATQRLANFLVRSSQNLGPVLPPTNVGSNTY-NH2 (disulfide 2-7 (inferred))
(A) 600
